Test: Turbidity, derived count rate of scattered light
Format: physicochemical
Conditions: turbidity, Log10 of derived count rate of scattered light; Figure 3A source data
Experimental: 4 µL of 1 mg/mL peptide fibrils solution is added to a 20 µL, 50 µM ThT–solution in PBS. The mixture is incubated for 15 min at RT to allow binding of ThT dye with β–sheet rich structures. […] Fluorescence spectra were recorded on an Infinite® M1000 PRO microplate reader (Tecan) at λem = 488 nm upon excitation at λex = 440 nm with 10 nm bandwidths and multiple reads per well (3×3). […] Furthermore, fluorescence microscopy was conducted by staining 1 µL preformed fibrils (1 mg/mL) with 9 µL ThT (50 µM). […]
Label Criterion met for high-side Log10 Count Rate (at or above 3) and Criterion not met for low-side Log10 Count Rate (below it).

(Q) Reported Log10 Count Rate reaches at least 3 for HHHHKAKAKAKAWWWW ?
(A) Criterion not met

(Q) Reported Log10 Count Rate reaches at least 3 for KIKIQIRGD ?
(A) Criterion not met

---

Assay: Turbidity, derived count rate of scattered light
Type: physicochemical
Details: Fig S8 panels B, D; log of derived count rate
Method: 4 µL of 1 mg/mL peptide fibrils solution is added to a 20 µL, 50 µM ThT–solution in PBS. The mixture is incubated for 15 min at RT to allow binding of ThT dye with β–sheet rich structures. […] Fluorescence spectra were recorded on an Infinite® M1000 PRO microplate reader (Tecan) at λem = 488 nm upon excitation at λex = 440 nm with 10 nm bandwidths and multiple reads per well (3×3). […] Furthermore, fluorescence microscopy was conducted by staining 1 µL preformed fibrils (1 mg/mL) with 9 µL ThT (50 µM). […]
Label yes for high-side Log Count Rate (at or above 3) and no for low-side Log Count Rate (below it).

Examples with answers:
>  <substance>
CKFKFQFNM [BL3]

>  <cat>
yes

$$$$
>  <substance>
CQFQFQF [QBL4]

>  <cat>
yes

$$$$
>  <substance>
CKWKWQW [KB4]

>  <cat>
yes

$$$$
>  <substance>
QCKIKQIINMWQ [reference compound]

>  <cat>
yes

$$$$
>  <substance>
KWKWQW [KB3]

>  <cat>
yes

$$$$

Turning now to a further substance:
(Q) Reported Log Count Rate reaches at least 3 for QCKAKAQA [CK24] ?
(A) yes

---

Readings of Avg Area in 3 *(1330 µm *1330 µm) for the listed substances
test: Aggregate analysis by widefield fluorescence microscopy; format: physicochemical; conditions: Fig S8 panels B, D; average aggregate area, 3 fields of 1330 µm x 1330 µm
// keep it numeric: no unit symbol after the value

For orientation, consider the following solved cases.
>  <substance>
QCKFKQFFNMWQ [CK10]

>  <Avg Area in 3 *(1330 µm *1330 µm)>
30.56

$$$$
>  <substance>
KIKIQIC [TM112 / CN11]

>  <Avg Area in 3 *(1330 µm *1330 µm)>
23.45

$$$$
>  <substance>
QCKAKAQA [CK24]

>  <Avg Area in 3 *(1330 µm *1330 µm)>
0

$$$$
>  <substance>
HHHHKIKIKIKIYYYY [TM6]

>  <Avg Area in 3 *(1330 µm *1330 µm)>
71.63

$$$$
>  <substance>
CKFKFQFNM [BL3]

>  <Avg Area in 3 *(1330 µm *1330 µm)>
19.89

$$$$

(Q) Recorded Avg Area in 3 *(1330 µm *1330 µm) of CKWKWQW [KB4] , please.
(A) 95.93

(Q) Recorded Avg Area in 3 *(1330 µm *1330 µm) of QCKIKIQINMWQ [EF-C opt] , please.
(A) 21.24

(Q) Recorded Avg Area in 3 *(1330 µm *1330 µm) of CHLHLQL [CN9] , please.
(A) 330.1

(Q) Recorded Avg Area in 3 *(1330 µm *1330 µm) of QCKIKQIINMWQ [reference compound] , please.
(A) 71.85

(Q) Recorded Avg Area in 3 *(1330 µm *1330 µm) of CKIKQII [MG4a] , please.
(A) 110.6

(Q) Recorded Avg Area in 3 *(1330 µm *1330 µm) of RGDSGGGGGGKIKIQIC [TM114 / RC17] , please.
(A) 372.8

(Q) Recorded Avg Area in 3 *(1330 µm *1330 µm) of CKIKIQI [MG3b] , please.
(A) 58.72

(Q) Recorded Avg Area in 3 *(1330 µm *1330 µm) of CKFKQFF [CK15] , please.
(A) 2578

(Q) Recorded Avg Area in 3 *(1330 µm *1330 µm) of KIKQIINMWQ [JG2] , please.
(A) 398.2

(Q) Recorded Avg Area in 3 *(1330 µm *1330 µm) of CSISIQI [TM141] , please.
(A) 112.5

(Q) Recorded Avg Area in 3 *(1330 µm *1330 µm) of CKFKFQFW [TM72] , please.
(A) 28.12

(Q) Recorded Avg Area in 3 *(1330 µm *1330 µm) of KIKIQIN [JGB3] , please.
(A) 197.4

(Q) Recorded Avg Area in 3 *(1330 µm *1330 µm) of KIKQIIN [JGA3] , please.
(A) 51.51

(Q) Recorded Avg Area in 3 *(1330 µm *1330 µm) of KWKWQW [KB3] , please.
(A) 112

---

format: physicochemical; details: Fig S10 panel E
Readings of ThT Cat. for the listed substances

>  <substance>
KIKIKIKIWW

>  <ThT Cat.>
1 (ThT. Cat is 1, if Rel. ThT >2)

$$$$

Kindly review the next substance as well.
(Q) Recorded ThT Cat. of RGDKIKIQINMWQ , please.
(A) 0 (ThT-inactive (N-Fold <2))

---

experiment: Turbidity, derived count rate of scattered light; assay type: physicochemical; details: peptides with TEM 2cat 0
recordedMetric: Zeta Count Rate (kcp)
Your answer is read as kcp, so omit the unit and give the number.

For orientation, consider the following solved cases.
>  <sequenceEntry>
KIKIQINMWWWQ

>  <unitDescriptor>
kcp

>  <Zeta Count Rate>
7596

$$$$
>  <sequenceEntry>
KIKIKIKIWW

>  <unitDescriptor>
kcp

>  <Zeta Count Rate>
9436

$$$$

(Q) Recorded Zeta Count Rate of EIEIQINMWQ , please.
(A) 1264

(Q) Recorded Zeta Count Rate of KIKIKIKIYYYY , please.
(A) 9918

(Q) Recorded Zeta Count Rate of HHHHKIKIKIKIYYYY , please.
(A) 12793

(Q) Recorded Zeta Count Rate of HHHHKIKIKIKIWWWW , please.
(A) 23757

(Q) Recorded Zeta Count Rate of KIKIKIKIWWWW , please.
(A) 12421

(Q) Recorded Zeta Count Rate of KIKIQINMWWQ , please.
(A) 3893

---

tested on: HIV-1 infection of TZM-bl cells; test: HIV-1 infectivity enhancement assay, β-galactosidase luminescence; format: cell-based; conditions: input.xlsx of the Pattern-Analysis script; infectivity relative to EF-C (peptide 59 = 1.00)
Readings of infectivity for the listed substances
// keep it numeric: no unit symbol after the value

For orientation, consider the following solved cases.
>  <substance>
KFKFQFN [compound 9]

>  <val>
0.018

$$$$
>  <substance>
KIKIKIKIYYYY [compound 86]

>  <val>
1.38

$$$$
>  <substance>
KIRGKFEKED [compound 47]

>  <val>
0.06

$$$$
>  <substance>
KIKIQIMWNQ [compound 159]

>  <val>
0.56

$$$$
>  <substance>
KIKIQINMWA [compound 81]

>  <val>
0.69

$$$$

(Q) Recorded infectivity of KIKQIINMWQ [compound 65] , please.
(A) 0.35

(Q) Recorded infectivity of CKIKQIINMWQ [compound 101] , please.
(A) 1.24

(Q) Recorded infectivity of CSISIQI [compound 132] , please.
(A) 0.0559

---

Readings of Tht category (> 2 to blank = +) for the listed substances
type: physicochemical; settings: Fig S10 panel D

For orientation, consider the following solved cases.
>  <substance>
RGDCKIKIQINM

>  <Tht category (> 2 to blank = +)>
0 (ThT-inactive (N-Fold <2))

$$$$
>  <substance>
CKAKAQANMWQ

>  <Tht category (> 2 to blank = +)>
0 (ThT-inactive (N-Fold <2))

$$$$
>  <substance>
KFKQFFNMWQ

>  <Tht category (> 2 to blank = +)>
0 (ThT-inactive (N-Fold <2))

$$$$
>  <substance>
KIKIKIKIYYYY

>  <Tht category (> 2 to blank = +)>
0 (ThT-inactive (N-Fold <2))

$$$$
>  <substance>
KNERIKNERI

>  <Tht category (> 2 to blank = +)>
0 (ThT-inactive (N-Fold <2))

$$$$

(Q) Recorded Tht category (> 2 to blank = +) of QCKAKAQANM , please.
(A) 0 (ThT-inactive (N-Fold <2))

(Q) Recorded Tht category (> 2 to blank = +) of CSISIQI , please.
(A) 1 (ThT. Cat is 1, if Rel. ThT >2)

(Q) Recorded Tht category (> 2 to blank = +) of KFKFQFW , please.
(A) 1 (ThT. Cat is 1, if Rel. ThT >2)

(Q) Recorded Tht category (> 2 to blank = +) of SISISRRI , please.
(A) 0 (ThT-inactive (N-Fold <2))

(Q) Recorded Tht category (> 2 to blank = +) of CKFKFQFNMW , please.
(A) 1 (ThT. Cat is 1, if Rel. ThT >2)

(Q) Recorded Tht category (> 2 to blank = +) of QCKFKFQF , please.
(A) 1 (ThT. Cat is 1, if Rel. ThT >2)

(Q) Recorded Tht category (> 2 to blank = +) of KIKIQIC , please.
(A) 1 (ThT. Cat is 1, if Rel. ThT >2)

(Q) Recorded Tht category (> 2 to blank = +) of KIKIQINMAQ , please.
(A) 0 (ThT-inactive (N-Fold <2))

(Q) Recorded Tht category (> 2 to blank = +) of NMWQKIKQII , please.
(A) 0 (ThT-inactive (N-Fold <2))

(Q) Recorded Tht category (> 2 to blank = +) of CEIEIQI , please.
(A) 1 (ThT. Cat is 1, if Rel. ThT >2)

(Q) Recorded Tht category (> 2 to blank = +) of KIKIQI , please.
(A) 0 (ThT-inactive (N-Fold <2))
